MEASUREMENT NOTES: self-splicing fitness, log relative to wild type (ln ratio); higher = more splicing; Tetrahymena group I intron in knt gene, E. coli kanamycin selection, DiMSum; sequences stand for … in CUCUCU…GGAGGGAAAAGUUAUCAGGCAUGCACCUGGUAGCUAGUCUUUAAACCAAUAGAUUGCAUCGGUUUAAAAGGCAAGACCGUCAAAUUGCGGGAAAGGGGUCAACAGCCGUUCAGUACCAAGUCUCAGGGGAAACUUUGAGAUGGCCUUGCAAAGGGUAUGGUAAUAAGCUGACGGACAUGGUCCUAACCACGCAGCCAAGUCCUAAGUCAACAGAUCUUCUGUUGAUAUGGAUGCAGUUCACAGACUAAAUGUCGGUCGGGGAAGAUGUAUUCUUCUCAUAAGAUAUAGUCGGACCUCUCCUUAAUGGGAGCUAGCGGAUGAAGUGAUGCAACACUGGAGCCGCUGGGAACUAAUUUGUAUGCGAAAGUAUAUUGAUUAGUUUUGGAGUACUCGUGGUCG;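 further: selection with 25 µg/mL kanamycin versus none on LB agar overnight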
RUN PARAMETERS: 37 °C
Is self-splicing fitness (ln) at least -0.3? Then true (1). If not, false (0).

>>> df
               residues  class_name
0  GUUCAGCAAUAUUACGAGUG   false (0)
1  GAAUAGCAAUAUUACGAAGU   false (0)
2  GUACAGCAAUAUUACGGGCU   false (0)
3  CGCAAGCAAUAUUACGGUCA    true (1)
4  CGUCAGCAAUAUUACGGAGA   false (0)
5  CUUAAGCAAUAUUACGGUAG   false (0)
6  GACCAGCAAUAUUACGCACU    true (1)
7  GAUGAGCAAUAUUACGGGCG   false (0)

====

Recorded self-splicing fitness (ln), one value per entry.
MEASUREMENT NOTES: self-splicing fitness, log relative to wild type (ln ratio); higher = more splicing; Tetrahymena group I intron in knt gene, E. coli kanamycin selection, DiMSum; sequences stand for … in CUCUCU…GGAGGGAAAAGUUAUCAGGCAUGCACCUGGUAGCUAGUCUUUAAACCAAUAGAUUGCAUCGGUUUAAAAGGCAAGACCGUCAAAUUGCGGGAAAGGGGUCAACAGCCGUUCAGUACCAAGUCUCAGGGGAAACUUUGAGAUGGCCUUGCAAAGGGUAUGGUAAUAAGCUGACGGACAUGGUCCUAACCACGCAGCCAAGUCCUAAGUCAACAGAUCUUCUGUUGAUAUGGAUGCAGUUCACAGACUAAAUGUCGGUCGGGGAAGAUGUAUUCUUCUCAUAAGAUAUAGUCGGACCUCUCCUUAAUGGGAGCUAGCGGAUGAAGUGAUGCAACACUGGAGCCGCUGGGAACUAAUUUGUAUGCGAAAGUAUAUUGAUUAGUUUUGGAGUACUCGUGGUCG
RUN PARAMETERS: 30 °C
ASSAY METRIC: self-splicing fitness (ln)

>>> print(df.to_string())
                residues  recorded_number
 0  UCCAAGCAAUAUUACGUACG            -3.53
 1  CAGUAGCAAUAUUACGUGGA             -2.9
 2  GCAUAGCAAUAUUACGGGCA            -1.67
 3  AUCGAGCAAUAUUACGUAAU            -1.91
 4  CGCUAGCAAUAUUACGGCGG            -1.68
 5  UCUGAGCAAUAUUACGGUGA           -0.612
 6  ACAGAGCAAUAUUACGCUUC            -3.96
 7  UGUCAGCAAUAUUACGUCUC             -2.3
 8  AUGCAGCAAUAUUACGACGC            -1.48
 9  UAAUAGCAAUAUUACGAACG           -0.579
10  CGUUAGCAAUAUUACGUUCG            -1.38
11  GAAGAGCAAUAUUACGCCGU            -2.88
12  CAUGAGCAAUAUUACGAAAG            -1.36
13  GUAAAGCAAUAUUACGGCCA           -0.497
14  GUUUAGCAAUAUUACGUCCG            -2.86
15  CCAUAGCAAUAUUACGUCCA            -1.27
16  CAGGAGCAAUAUUACGUUGA            -3.22
17  GGGUAGCAAUAUUACGGCCA           -0.214
18  UGUUAGCAAUAUUACGGGUG           -0.781
19  UGUCAGCAAUAUUACGGGCA            -2.75
20  UGACAGCAAUAUUACGGAAC            -2.81
21  UGACAGCAAUAUUACGCGUG           -0.925
22  CAAUAGCAAUAUUACGGGUA             -3.9
23  CCUUAGCAAUAUUACGCGGU            -3.78
24  UUCGAGCAAUAUUACGAUGA           -0.824
25  AUACAGCAAUAUUACGGAGU            -1.72
26  AUAAAGCAAUAUUACGGGCA           -0.434
27  GCUGAGCAAUAUUACGAGUU            -2.73
28  UCUGAGCAAUAUUACGGCGA           -0.309
29  CGGGAGCAAUAUUACGGCAA            -3.64
30  GUGAAGCAAUAUUACGGAAC             0.76
31  GUAGAGCAAUAUUACGCAAU            -2.52
32  UUUGAGCAAUAUUACGCUUG            -3.52
33  UUUCAGCAAUAUUACGGGUC            -3.24
34  GGGCAGCAAUAUUACGUCGC            -1.69
35  UAUCAGCAAUAUUACGUACU            -1.57
36  CCAGAGCAAUAUUACGUAAU            -3.66
37  GACAAGCAAUAUUACGUAUG            -2.86
38  CGCCAGCAAUAUUACGCUAA            -2.34
39  CAGAAGCAAUAUUACGCUAA            -4.46
40  GAAAAGCAAUAUUACGAGAU            -3.26
41  AUAAAGCAAUAUUACGGCCG           -0.128
42  AGAUAGCAAUAUUACGGCGA           -0.537
43  UGCCAGCAAUAUUACGACUG            -2.79
44  UGAGAGCAAUAUUACGCUUG            -2.26
45  GUAGAGCAAUAUUACGACAC           -0.732
46  CGGGAGCAAUAUUACGACGC            -4.16
47  GGAUAGCAAUAUUACGACCC            -0.96
48  GUGAAGCAAUAUUACGAAAU           -0.716
49  UCUGAGCAAUAUUACGCUAG            -1.31
50  CCAUAGCAAUAUUACGGAUC            -1.97
51  CUGAAGCAAUAUUACGGGAA            -2.05
52  CUAUAGCAAUAUUACGAUCG           -0.256
53  CCAUAGCAAUAUUACGUUUG            -1.68
54  AUCAAGCAAUAUUACGGCUG           -0.736
55  AGACAGCAAUAUUACGGGUU            -1.96
56  AUACAGCAAUAUUACGGAUG             -2.7
57  GGCUAGCAAUAUUACGGCCU             -3.3
58  GGCUAGCAAUAUUACGACUC             0.93
59  UCAGAGCAAUAUUACGCACG            -3.39
60  UAGGAGCAAUAUUACGUUCG           -0.918
61  UAAUAGCAAUAUUACGGCCC            -2.07
62  UAAGAGCAAUAUUACGAGUG            -3.74
63  ACUUAGCAAUAUUACGUCGG            -2.34
64  UGAUAGCAAUAUUACGUGGU             -2.4
65  CCCAAGCAAUAUUACGGUCA            -2.13
66  CACGAGCAAUAUUACGGUUA            -2.76
